Data provenance is patent US8912329B2.

Below, each of the compounds is paired with its reported remaining activity at 0.5 µM value.
biological target: EthR-VP16 (Mycobacterium bovis); experiment: cell-based; design: species or system M. bovis; details: 48 h, read-out: % EthR activity (w/o = 100%); ± std. dev. of the mean (n = 3)
Sequence (Q7TVI1 whole entry, looked up): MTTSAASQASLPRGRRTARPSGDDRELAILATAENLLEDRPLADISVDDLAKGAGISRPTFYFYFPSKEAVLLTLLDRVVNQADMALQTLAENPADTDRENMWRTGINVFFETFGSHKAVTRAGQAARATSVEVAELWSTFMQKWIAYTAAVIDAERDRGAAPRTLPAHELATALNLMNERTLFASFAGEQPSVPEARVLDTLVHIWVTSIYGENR
readout name: remaining activity at 0.5 µM (%)

                                    compound                  readout_name  unit_descriptor  quantitative_readout
 0  CCCC(=O)N1CCC(c2ccccc2)C1 (stereo not drawn) [Example 13, 1-(3-Phenylpyrrolidin-1-yl)butan-1-one]  remaining activity at 0.5 µM                %                  30.4
 1  O=C(CCc1ccccc1)N1CC(Cc2ccccc2)C1 [Example 25]  remaining activity at 0.5 µM                %                  86.8
 2  O=C(CCc1ccco1)N1CCN(Cc2ccccc2)CC1 [Example 18]  remaining activity at 0.5 µM                %                  91.9
 3  CCCCC(=O)N1CCOC(c2ccccc2)C1 (stereo not drawn) [Example 30, 1-(2-Phenylmorpholin-4-yl)pentan-1-one]  remaining activity at 0.5 µM                %                   112
 4  O=C(CCCc1ccccc1)N1CC(Cc2ccccc2)C1 [Example 27]  remaining activity at 0.5 µM                %                  59.6
 5  O=C(CCc1ccccc1)N1CCOC(c2ccccc2)C1 (stereo not drawn) [Example 21]  remaining activity at 0.5 µM                %                   108
 6  O=C(Cc1ccccc1)N1CCC(c2ccccc2)C1 (stereo not drawn) [Example 17]  remaining activity at 0.5 µM                %                  38.5
 7  CCCCCC(=O)N1CCN(Cc2ccccc2)CC1 [Example 29, 1-(4-Benzylpiperazin-1-yl)hexan-1-one]  remaining activity at 0.5 µM                %                  85.4
 8  O=C(COc1ccc(F)cc1)N1CCC(c2ccccc2)C1 (stereo not drawn) [Example 15]  remaining activity at 0.5 µM                %                  10.3
 9  O=C(CCc1ccccc1)N1CCC(c2ccccc2)C1 (stereo not drawn) [Example 16]  remaining activity at 0.5 µM                %                  28.3
10  O=C(CCc1ccccc1)N1CCC1c1ccccc1 (stereo not drawn) [Example 22]  remaining activity at 0.5 µM                %                    90
11  CCCCC(=O)N1CCC(c2ccccc2)C1 (stereo not drawn) [Example 32, 1-(3-Phenylpyrrolidin-1-yl)pentan-1-one]  remaining activity at 0.5 µM                %                  12.5
12  O=C(CCCc1ccccc1)N1CCC1c1ccccc1 (stereo not drawn) [Example 23]  remaining activity at 0.5 µM                %                  96.3
13  CCCCCC(=O)N1CCC(c2ccccc2)C1 (stereo not drawn) [Example 33, 1-(3-Phenylpyrrolidin-1-yl)hexan-1-one]  remaining activity at 0.5 µM                %                  11.4
14  CCCCC(=O)N1CCN(Cc2ccccc2)CC1 [Example 28, 1-(4-Benzylpiperazin-1-yl)pentan-1-one]  remaining activity at 0.5 µM                %                  97.1
15  O=C(Cc1cccs1)N1CCOC(c2ccccc2)C1 (stereo not drawn) [Example 14]  remaining activity at 0.5 µM                %                   106
16  CC(C)CC(=O)N1CCOC(c2ccccc2)C1 (stereo not drawn) [Example 19]  remaining activity at 0.5 µM                %                  95.6
17  CC(C)(C)CC(=O)N1CCOC(c2ccccc2)C1 (stereo not drawn) [Example 20]  remaining activity at 0.5 µM                %                  96.6
18  CCCC(=O)N1CCN(Cc2ccccc2)CC1 [Example 1, 1-(4-Benzylpiperazin-1-yl)butan-1-one]  remaining activity at 0.5 µM                %                  72.5
19  CCCC(=O)N1CCOC(c2ccccc2)C1 (stereo not drawn) [Example 3, 1-(2-Phenylmorpholino)butan-1-one]  remaining activity at 0.5 µM                %                  85.5
20  CCCCCC(=O)N1CCOC(c2ccccc2)C1 (stereo not drawn) [Example 31, 1-(2-Phenylmorpholin-4-yl)hexan-1-one]  remaining activity at 0.5 µM                %                   106
